Just for reference, patent US20030199671A1 is where these values come from.

biological target: T1, human IgG1 (human, UniProt P01857-1 1-330 = IgG part); test: fluorescence anisotropy; pH 5.7, 0.15 M NaCl
T1 construct: Calbiochem; human plasma IgG1 in anisotropy studies, myeloma-derived (cat. 400120) in batch/column studies; also called hIgG1
T1 sequence (P01857 other isoform, or with tags, fused parts or gaps): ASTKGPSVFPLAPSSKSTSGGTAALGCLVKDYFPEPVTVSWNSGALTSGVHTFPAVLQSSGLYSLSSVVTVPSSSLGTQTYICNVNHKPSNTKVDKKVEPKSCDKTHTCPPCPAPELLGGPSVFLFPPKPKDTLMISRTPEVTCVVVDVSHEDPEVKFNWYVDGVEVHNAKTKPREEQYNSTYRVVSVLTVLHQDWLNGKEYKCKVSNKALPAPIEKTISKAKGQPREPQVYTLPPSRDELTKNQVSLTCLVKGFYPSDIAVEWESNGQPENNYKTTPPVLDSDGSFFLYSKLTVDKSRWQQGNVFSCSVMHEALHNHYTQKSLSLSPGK
pKd: −log10 of the molar value. Positions of bridges follow the written chain, without caps; N, C: chain ends.
QUANTITY MEASURED: pKd

[
  {
    "BINDER": "Ac-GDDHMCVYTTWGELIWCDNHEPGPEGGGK-NH2 (disulfide 6-17 (inferred), Synthetic disulfide-cyclised peptide) [DX249]",
    "QUANTITY MEASURED": "pKd",
    "REPORTED RESULT": 6.08
  }
]
